biological target: Ubiquitin carboxyl-terminal hydrolase 1 (Homo sapiens); test: Inhibitors of USP1/UAF1: Pilot qHTS (AID 504865); details: purified USP1/UAF1, Ub-rhodamine cleavage fluorescence; series mostly up to 114 µM; further: nearly all actives have a fitted effect of over 35% in size
Inconclusive results are not listed. Calls of active or inactive are those of the source. The call rests on the fitted dose curve; in most records, active means well fitted inhibition curve with a large enough effect; inconclusive means small, poorly fitted or top-dose-only effect; inactive means flat fitted curve, though single readings scatter.
Field 'call' accepts 1 = active, -1 = inactive

Hi team, can someone confirm the assay call for O=C(Nc1ccc(C(=O)Nc2ccc(C(=O)Nc3ccc(S(=O)(=O)O)c4cc(S(=O)(=O)O)cc(S(=O)(=O)O)c34)cc2)cc1)Nc1ccc(C(=O)Nc2ccc(C(=O)Nc3ccc(S(=O)(=O)O)c4cc(S(=O)(=O)O)cc(S(=O)(=O)O)c34)cc2)cc1 ?
1

Hi team, can someone confirm the assay call for O=C(O)/C=C1\CCCc2ccccc2[C@H]1O ?
-1

Hi team, can someone confirm the assay call for CN1[C@H](CC(=O)c2ccccc2)CCC[C@H]1C[C@H](O)c1ccccc1 ?
-1

Hi team, can someone confirm the assay call for CCCCC#Cc1nc(NC)c2ncn([C@@H]3O[C@@H](CO)[C@H](O)[C@H]3O)c2n1 ?
-1

Hi team, can someone confirm the assay call for Nc1nc(NCCc2ccc(O)cc2)nc2nc(-c3ccco3)nn12 ?
-1

Hi team, can someone confirm the assay call for c1csc(CNc2ncnc3ccc(-c4ccc5c(c4)OCO5)cc23)c1 ?
-1

Hi team, can someone confirm the assay call for CC(=O)Nc1ccc(OC[C@@H](O)CNC(C)C)cc1 ?
-1

Hi team, can someone confirm the assay call for N[C@@H](Cc1cc(CP(=O)(O)O)cc(-c2ccccc2Cl)c1)C(=O)O ?
-1

Hi team, can someone confirm the assay call for Nc1ncnc2c1c(I)cn2C1OC(CO)C(O)C1O (centres undefined) ?
-1

----------
assay: Primary qHTS for inhibitors of nuclear receptor binding SET domain protein 2 (NSD2) in an isogenic RCH-ACV NSD2 p.E1099K mutant (9B) (AID 1645876); conditions: RCH-ACV (leukaemia line) NSD2 E1099K (9B) viability, CellTiter-Glo, 72 h; series mostly up to 44.9 µM; further: nearly all actives have a fitted effect of over 70% in size
Records with an inconclusive call do not appear. Activity calls are given as the source filed them. The call rests on the fitted dose curve; in most records, active means well fitted inhibition curve with a large enough effect; inconclusive means small, poorly fitted or top-dose-only effect; inactive means flat fitted curve, though single readings scatter.
Field 'call' accepts 1 (yes) (active), 0 (no) (inactive)

Hi team, can someone confirm the assay call for CCNC(=O)[C@@H]1CCCN1C(=O)[C@H](CCCN=C(N)N)NC(=O)[C@H](CC(C)C)NC(=O)[C@@H](CC(C)C)NC(=O)[C@H](Cc1ccc(O)cc1)NC(=O)[C@H](CO)NC(=O)[C@H](Cc1c[nH]c2ccccc12)NC(=O)[C@H](Cc1cnc[nH]1)NC(=O)[C@@H]1CCC(=O)N1 ?
0 (no)

Hi team, can someone confirm the assay call for C=CC(=O)Nc1cccc(Nc2nc(Nc3ccccc3)ncc2C)c1 ?
1 (yes)

Hi team, can someone confirm the assay call for CC[C@]1(O)C[C@H]2CN(CCC3C(=Nc4ccccc43)[C@@](C(=O)OC)(c3cc4c(cc3OC)N(C)[C@H]3[C@@](O)(C(N)=O)[C@H](O)[C@]5(CC)C=CCN6CC[C@]43[C@@H]65)C2)C1 (stereo partly specified) ?
1 (yes)

Hi team, can someone confirm the assay call for COC[C@H](C)Oc1cc(O[C@@H](C)Cc2ccccc2)cc(C(=O)Nc2ccc(C(=O)O)cn2)c1 ?
0 (no)

Hi team, can someone confirm the assay call for Cc1cc(CN)cc(C)c1NC(=O)c1ccc(-c2cc(Cl)ccc2Cl)o1 ?
1 (yes)

Hi team, can someone confirm the assay call for Cc1ccc(NC(=O)Nc2nnc(Sc3ncnc4cc(OCCCN5CCOCC5)ccc34)s2)cc1 ?
1 (yes)

Hi team, can someone confirm the assay call for C[N+]1(C)[C@@H]2CC[C@H]1CC(OC(=O)C(O)c1ccccc1)C2 (stereo partly specified) ?
0 (no)

Hi team, can someone confirm the assay call for CC1(C)CC[C@]2(C(=O)O)CC[C@]3(C)C(=CC[C@@H]4[C@@]5(C)C[C@@H](O)[C@H](O)C(C)(C)[C@@H]5CC[C@]43C)[C@@H]2C1 ?
0 (no)

Hi team, can someone confirm the assay call for CN1CCN(C(=O)c2ccc(Nc3nccc(-c4cccs4)n3)cc2Cl)CC1 ?
1 (yes)

Hi team, can someone confirm the assay call for COc1ccc2nc3ccc(OC)cc3c(SCCCN)c2c1 ?
0 (no)

Hi team, can someone confirm the assay call for CCOC(=O)c1cnn(-c2ccc(NC(=O)C(Cl)=C(Cl)Cl)cc2)c1C(F)(F)F ?
1 (yes)

Hi team, can someone confirm the assay call for Cc1ccc(Nc2ncc3c(n2)N(C)C(=O)N(c2cc(NC(=O)c4cccc(C(F)(F)F)c4)ccc2C)C3)cn1 ?
1 (yes)

Hi team, can someone confirm the assay call for CCOC(=O)CCC(=O)O[C@H]1[C@H](O[C@@H]2[C@@H](C)[C@H](O[C@H]3C[C@@](C)(OC)[C@@H](O)[C@H](C)O3)[C@@H](C)C(=O)O[C@H](CC)[C@@](C)(O)[C@H](O)[C@@H](C)C(=O)[C@H](C)CC2(C)O)O[C@H](C)C[C@@H]1N(C)C (stereo partly specified) ?
0 (no)

Hi team, can someone confirm the assay call for O=c1sn(-c2cccc3ccccc23)c(=O)n1Cc1ccccc1 ?
0 (no)

Hi team, can someone confirm the assay call for O=C(c1ccc(-c2ccc(Cl)cc2)o1)N(Cc1ccccn1)c1ccc(N2CCNCC2)cc1 ?
1 (yes)

Hi team, can someone confirm the assay call for COc1cc([C@@H](CC(=O)O)c2ccc(C)c(CN3C[C@@H](C)Oc4ccccc4S3(=O)=O)c2)cc2nnn(C)c12 ?
0 (no)

----------
biological target: Nuclear receptor subfamily 1 group I member 3 (Homo sapiens) (UniProt Q14994); test: qHTS for Constitutive Androstane Receptor (CAR) Agonist screened against the NCATS CANVASS Library (AID 1347373); settings: HepG2-hCAR-CYP2B6 luciferase reporter, ONE-Glo luminescence; series mostly up to 46.1 µM;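 further: every well also contained 1.5 µM PK11195 alongside the test compound; 0% is about no effect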
Sequence (Q14994 whole entry, looked up): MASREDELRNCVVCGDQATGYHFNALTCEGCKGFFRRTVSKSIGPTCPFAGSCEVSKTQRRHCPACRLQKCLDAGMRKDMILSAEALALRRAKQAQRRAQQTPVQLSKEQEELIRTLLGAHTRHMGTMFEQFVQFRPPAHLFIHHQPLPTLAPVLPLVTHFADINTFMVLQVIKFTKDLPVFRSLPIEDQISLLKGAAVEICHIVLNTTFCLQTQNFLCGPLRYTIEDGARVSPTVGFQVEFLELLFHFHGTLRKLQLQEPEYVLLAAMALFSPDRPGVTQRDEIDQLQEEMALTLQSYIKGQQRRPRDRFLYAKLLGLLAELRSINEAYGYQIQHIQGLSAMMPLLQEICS
Results filed as inconclusive are left out. Active and inactive are the calls of the source. Calls follow the shape of the dose curve; as a rule, active = well fitted activation curve with a large enough effect; inconclusive = small, poorly fitted or top-dose-only effect; inactive = no such curve, though single readings can be large or run the other way.
experimental_readout: activation

# annotated cases, reported activation shown
• COc1ccc([C@@H]2c3cc(OC)c(OC)cc3C(=O)[C@H](C)C2C)cc1OC (stereo not given in full) = 1.07% [at 9.19 µM] (inactive)
• O=C1CC(c2cc(O)cc(O)c2)Oc2cc(O)ccc21 (stereo not given) = inactive
• C=CC(C)(C)C(=O)[C@@H](C)[C@@H]1CC[C@](C)(C=C)O1 = inactive
• CC(C)(Br)[C@@H](Cl)C[C@H](Br)[C@](C)(Cl)/C=C/Br = inactive

Reported activation, compound CO[C@@H]1[C@H](O)[C@@H](C)O[C@@H](OC[C@@H]2C(C)OC(=O)/C=C/[C@H](C)C(O[C@@H]3O[C@H](C)CC4(OC(=O)O[C@@H]4C)C3O)[C@@H](C)CC(C)C(=O)CC[C@H]3OC23)[C@@H]1OC (stereo not given in full) : ____
inactive

----------
target: N-terminal Xaa-Pro-Lys N-methyltransferase 1 (Homo sapiens); test: Confirmatory qHTS for Inhibitors of N-terminal methyltransferase 1 (NTMT1): MTaseGlo Assay (AID 1645874); conditions: NTMT1 enzyme, MTase-Glo SAH luminescence; series mostly up to 100 µM; further: nearly all actives have a fitted effect of over 65% in size; further: potency means the concentration at half of the fitted maximal effect
Records with an inconclusive call do not appear. Active and inactive are the calls of the source. The call rests on the fitted dose curve; in most records, active means well fitted inhibition curve with a large enough effect; inconclusive means small, poorly fitted or top-dose-only effect; inactive means no such curve, though single readings can be large or run the other way.
experimental_readout: Potency

# annotated cases, reported Potency shown
- Cc1cccc(/C=C/c2ccccc2)n1: 27.4 µM (active)
- CN(C)c1ccc(Nc2c3ccc(NC(=O)CCN4CCCC4)cc3nc3cc(NC(=O)CCN4CCCC4)ccc23)cc1: 6.49 µM (active)
- Cc1cc(CS(=O)(=O)c2ccccc2)cc(OCc2ccc(CN3CCC[C@@H]3CO)cc2)c1: inactive
- Cc1nc(CN(C)c2ncnc3ccc(-c4ccc5c(c4)OCO5)cc23)cs1: 4.26 µM (active)
- COc1ccccc1NC(=O)Nc1ccc2ccccc2c1: inactive

Now, please, on to the next compound.
Reported Potency, compound Cn1cc(C2=C(c3cn(CCCSC(=N)N)c4ccccc34)C(=O)NC2=O)c2ccccc21 : ____
6.02 µM (active)

----------
target: Rap guanine nucleotide exchange factor 3 (Homo sapiens) (UniProt O95398); experiment: Counterscreen qHTS for antagonist of cAMP-regulated guanine nucleotide exchange factor 3 (EPAC1) (AID 1645888); details: Rap1B-BODIPY-GDP nucleotide exchange, fluorescence; series mostly up to 154 µM;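 further: fluorescence loss as bound BODIPY-GDP is released from Rap1B; % of control where 0% means no effect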
Sequence (O95398 whole entry, looked up): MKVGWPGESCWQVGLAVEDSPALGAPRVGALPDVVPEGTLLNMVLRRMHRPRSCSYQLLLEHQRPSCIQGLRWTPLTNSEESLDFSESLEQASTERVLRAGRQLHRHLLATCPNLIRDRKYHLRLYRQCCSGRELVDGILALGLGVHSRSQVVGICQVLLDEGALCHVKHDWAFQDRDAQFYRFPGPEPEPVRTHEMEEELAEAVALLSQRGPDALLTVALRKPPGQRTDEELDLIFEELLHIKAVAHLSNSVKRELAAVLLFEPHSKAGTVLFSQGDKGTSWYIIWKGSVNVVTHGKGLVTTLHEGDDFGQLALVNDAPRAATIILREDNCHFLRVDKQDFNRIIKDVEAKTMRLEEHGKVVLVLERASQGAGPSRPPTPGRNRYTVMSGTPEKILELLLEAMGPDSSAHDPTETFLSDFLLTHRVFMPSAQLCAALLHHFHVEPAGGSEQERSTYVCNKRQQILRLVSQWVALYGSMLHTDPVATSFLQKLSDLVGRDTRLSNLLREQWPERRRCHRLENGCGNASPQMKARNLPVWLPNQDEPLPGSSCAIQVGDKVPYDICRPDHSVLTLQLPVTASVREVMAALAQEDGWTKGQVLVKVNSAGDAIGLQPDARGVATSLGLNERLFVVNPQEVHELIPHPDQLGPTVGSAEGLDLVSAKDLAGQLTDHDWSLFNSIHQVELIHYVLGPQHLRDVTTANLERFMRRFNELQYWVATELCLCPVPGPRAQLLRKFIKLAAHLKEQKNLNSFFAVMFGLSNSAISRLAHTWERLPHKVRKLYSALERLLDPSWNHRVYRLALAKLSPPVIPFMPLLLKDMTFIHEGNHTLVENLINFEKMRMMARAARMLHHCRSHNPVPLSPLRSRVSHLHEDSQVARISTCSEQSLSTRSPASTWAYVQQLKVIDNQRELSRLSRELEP
Inconclusive results are not listed. The source made the active and inactive calls. The call rests on the fitted dose curve; in most records, active means well fitted inhibition curve with a large enough effect; inconclusive means small, poorly fitted or top-dose-only effect; inactive means no such curve, though single readings can be large or run the other way.
experimental_readout: activity change, negative = inhibition

# annotated cases, reported activity change, negative = inhibition shown
- CCCCCCc1cc2cc(-c3nnc(-c4cccc(Cl)c4)o3)c(=O)oc2cc1O: inactive
- N#C/C(=C\c1ccc(-c2ccc(Cl)c(C(=O)O)c2)o1)c1nc2ccccc2[nH]1: inactive
- COC(=O)CCC(=O)OC1(C)C(=O)C=C2C=C(C3CC3)N(CCCOC(C)C)C=C2C1=O (stereo unspecified): inactive
- COc1ccc(NS(=O)(=O)c2ccc3c(c2)[C@H]2C=CC[C@H]2[C@@H](c2ccc(C(=O)O)cc2)N3)cc1: inactive
- O=C(O)CCc1ccc(-c2ccc(Cl)cc2)n1-c1cccc(C(F)(F)F)c1: inactive

Reported activity change, negative = inhibition, compound O=C(O)c1ccccc1-c1c2cc(I)c(=O)c(I)c-2oc2c(I)c(O)c(I)cc12 : ____
212% [at 30.8 µM] (inactive)
